These measurements were taken from patent US9029337B2.

- Tested on: human Factor 7 mRNA
- measurement_description: Dose-dependent antisense inhibition of human Factor 7 in HepB3 cells, electroporation
- Format: cell-based
- reported_conditions: 6.25 μM, approx. 16 hours (Table 15, Example 7)
Strand notation (5' to 3'): a small letter for the sugar, then the base; units joined by * are phosphorothioate-linked, units joined directly phosphodiester-linked; [ ] holds rarer units or linkages, { } end groups; capitals alone tell only the bases. e = 2'-O-(2-methoxyethyl) (MOE); [5mC] = 5-methylcytosine; d = 2'-deoxy (DNA)
Decision: percent inhibition of Factor 7 mRNA, relative to untreated control cells compared against 30%; not below it gives class 1, below it gives class 0.

1) 407935 (antisense eA*eT*eG*e[5mC]*eA*dT*dG*dG*dT*dG*dA*dT*dG*d[5mC]*dT*eT*e[5mC]*eT*eG*eA) [compound 407935]: class 1
2) 422228 (antisense eT*eG*d[5mC]*dA*dT*dG*dG*dT*dG*dA*dT*dG*d[5mC]*dT*dT*e[5mC]*eT*eG*eA*eA) [compound 422228]: class 1
3) 422295 (antisense e[5mC]*eG*dA*dG*dT*dT*d[5mC]*dT*dG*d[5mC]*dA*dG*dG*dA*dG*e[5mC]*eG*eG*e[5mC]*e[5mC]) [compound 422295]: class 0
4) 422177 (antisense e[5mC]*e[5mC]*e[5mC]*dG*d[5mC]*d[5mC]*dG*dG*d[5mC]*dT*d[5mC]*dT*dG*d[5mC]*dT*d[5mC]*dA*eT*e[5mC]*e[5mC]) [compound 422177]: class 0

---

- System: human Factor 7 mRNA
- measurement_description: Antisense inhibition of human Factor 7 mRNA in HepB3 cells, 50 nM antisense oligonucleotide, lipofectin
- Assay type: cell-based
- reported_conditions: oligonucleotides targeted to nucleobases 11830 to 11869 of SEQ ID NO: 1 (Table 9)
Strand notation (5' to 3'): a small letter for the sugar, then the base; units joined by * are phosphorothioate-linked, units joined directly phosphodiester-linked; [ ] holds rarer units or linkages, { } end groups; capitals alone tell only the bases. e = 2'-O-(2-methoxyethyl) (MOE); [5mC] = 5-methylcytosine; d = 2'-deoxy (DNA)
Each entry below carries its recorded % Inhibition (human Factor 7 mRNA levels).
property: % Inhibition (human Factor 7 mRNA levels) (%)

1) 422246 (antisense e[5mC]*eT*dG*dA*dG*dG*dA*dG*dA*d[5mC]*dA*dA*dT*dG*dG*eT*e[5mC]*eA*eG*eG) [compound 422246]: 46
2) 422163 (antisense eA*eG*eA*d[5mC]*dA*dA*dT*dG*dG*dT*d[5mC]*dA*dG*dG*dG*d[5mC]*dT*eG*eG*eT) [compound 422163]: 56
3) 422166 (antisense eA*eG*eG*dA*dG*dA*d[5mC]*dA*dA*dT*dG*dG*dT*d[5mC]*dA*dG*dG*eG*e[5mC]*eT) [compound 422166]: 63
4) 422091 (antisense eT*eG*eG*eT*e[5mC]*dA*dG*dG*dG*d[5mC]*dT*dG*dG*dT*dT*eT*eT*eG*eG*eA) [compound 422091]: 42
5) 422096 (antisense eA*eG*eA*e[5mC]*eA*dA*dT*dG*dG*dT*d[5mC]*dA*dG*dG*dG*e[5mC]*eT*eG*eG*eT) [compound 422096]: 76
6) 422164 (antisense eG*eA*eG*dA*d[5mC]*dA*dA*dT*dG*dG*dT*d[5mC]*dA*dG*dG*dG*d[5mC]*eT*eG*eG) [compound 422164]: 64
